- System Name: human CYP11B1 (Homo sapiens)
- Construct: expressed in transfected cells
- Sequence (P15538 25-503): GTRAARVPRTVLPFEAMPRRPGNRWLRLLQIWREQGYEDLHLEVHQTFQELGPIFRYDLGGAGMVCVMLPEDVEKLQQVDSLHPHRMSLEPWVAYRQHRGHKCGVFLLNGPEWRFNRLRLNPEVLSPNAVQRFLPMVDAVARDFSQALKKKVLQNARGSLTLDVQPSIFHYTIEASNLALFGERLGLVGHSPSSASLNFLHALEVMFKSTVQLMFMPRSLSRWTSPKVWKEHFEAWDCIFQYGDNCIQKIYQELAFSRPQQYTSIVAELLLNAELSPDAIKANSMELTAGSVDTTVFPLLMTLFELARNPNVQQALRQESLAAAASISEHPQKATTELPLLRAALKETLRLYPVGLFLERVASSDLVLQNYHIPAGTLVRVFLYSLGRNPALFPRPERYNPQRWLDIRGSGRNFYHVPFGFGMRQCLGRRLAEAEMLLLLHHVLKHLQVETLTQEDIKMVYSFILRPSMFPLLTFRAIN
- Test: G-402 cellular enzyme assay, human CYP11B1 (cortisol release, HTRF)
- Assay type: cell-based
- Test Parameters: G-402 cells, 1 μM Deoxycortisol
Quantity: EC50 (µM)
Hi! Could you send only the number? It should be in µM, unit omitted.

>>> print(df.to_string())
                                   compound                   system_name  endpoint_result
0  CS(=O)(=O)NC1CCc2c1cncc2N1Cc2cc(Cl)ccc2C1=O (single isomer, unassigned)  human CYP11B1 (Homo sapiens)             34.6
1   COC(=O)COc1cncc(N2CCc3cc(Cl)ccc3C2=O)c1  human CYP11B1 (Homo sapiens)             7.61
2  CCS(=O)(=O)Nc1cncc(N2CCc3cc(Cl)ccc3C2=O)c1  human CYP11B1 (Homo sapiens)             14.3
3  O=C1c2ccc(Cl)cc2CCN1c1cncc(CN2CCC[C@H]2CO)c1  human CYP11B1 (Homo sapiens)             1.92

[ask] Returns the measured EC50 for the input compound. Input: CCS(=O)(=O)N1CC[C@H](Oc2cncc(N3C(=O)c4ccc(Cl)cc4C3(C)C)c2)C1
[reply] 1.98

[ask] Returns the measured EC50 for the input compound. Input: O=C1c2ccc(Cl)cc2CCN1c1cncc(Cc2c(F)cccc2Cl)c1
[reply] 0.137

[ask] Returns the measured EC50 for the input compound. Input: CC(C)Oc1cncc(N2C(=O)c3ccc(Cl)cc3C2(C)C)c1
[reply] 0.0781

[ask] Returns the measured EC50 for the input compound. Input: CCS(=O)(=O)NC1CCCc2c1cncc2N1Cc2cc(Cl)ccc2C1=O (single isomer, unassigned; (-)) [Example 317]
[reply] 2.64

[ask] Returns the measured EC50 for the input compound. Input: O=C1c2ccc(Cl)c(Cl)c2CCN1c1cccnc1
[reply] 10.3

[ask] Returns the measured EC50 for the input compound. Input: O=C(c1cncc(N2CCc3cc(Cl)ccc3C2=O)c1)N1CCCC1
[reply] 7.86

[ask] Returns the measured EC50 for the input compound. Input: CCOc1ccc2c(n1)C(C)(C)N(c1cncc(OC(F)F)c1)C2=O
[reply] 12.6

[ask] Returns the measured EC50 for the input compound. Input: CC(=O)NCc1cncc(N2CCc3cc(Cl)ccc3C2=O)c1
[reply] 15

[ask] Returns the measured EC50 for the input compound. Input: CCC1c2cc(Cl)ccc2C(=O)N1c1cncc(-c2ccnn2C)c1 (single isomer, unassigned) [Example 429]
[reply] 0.0577

The reported measurements were obtained from patent US9133158B2.
